Cited source for all entries: paper PMC8151276

tested.system: PTGER3 (Homo sapiens, UniProt P43115)
Construct: purchased Promega (in-house HiBiT-GPCR construct library, NanoBRET)
Sequence (P43115 whole entry): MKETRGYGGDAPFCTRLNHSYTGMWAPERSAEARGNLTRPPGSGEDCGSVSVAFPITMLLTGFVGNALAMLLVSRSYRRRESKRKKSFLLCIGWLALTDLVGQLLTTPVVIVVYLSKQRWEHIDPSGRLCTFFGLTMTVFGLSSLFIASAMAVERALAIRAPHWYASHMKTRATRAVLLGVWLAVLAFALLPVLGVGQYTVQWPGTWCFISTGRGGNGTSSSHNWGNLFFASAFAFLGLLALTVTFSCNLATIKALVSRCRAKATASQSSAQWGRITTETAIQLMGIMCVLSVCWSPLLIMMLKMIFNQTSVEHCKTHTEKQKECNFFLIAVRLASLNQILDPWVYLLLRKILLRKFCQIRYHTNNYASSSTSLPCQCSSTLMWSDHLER
protocol: NanoBRET screen HiBiT-PTGER3 in HEK293
Type: binding
condition.notes: PTGER3; tracer 1μM
Here, each record is paired with measured NanoBRET Fold Response data.
Please state the value as a number alone, without comment.

Sample answers from the record:
[[record]]
molecule = "O=C(CCOCCOCCOCCOCCNC(=O)CCc1ccc2n1[B-](F)(F)[N+]1=C(c3ccc[nH]3)C=CC1=C2)NCCCN1CCN(C2=Nc3ccccc3Oc3ccc(Cl)cc32)CC1 [Loxapine-a-2-NB590]"
experimental_value = 0.98

[[record]]
molecule = "N#CN=C(NCCCOc1cccc(CN2CCCCC2)c1)NCCNC(=O)CCOCCOCCOCCOCCNC(=O)CCc1ccc2n1[B-](F)(F)[N+]1=C(c3ccc[nH]3)C=CC1=C2 [Aminopotentidine-2-NB590]"
experimental_value = 1.01

[[record]]
molecule = "O=C(CCc1ccc2n1[B-](F)(F)[N+]1=C(c3ccc[nH]3)C=CC1=C2)NCc1ccc(C(=O)NCCOCCC(=O)N[C@@H]2CC[C@@]3(O)[C@H]4Cc5ccc(O)c6c5[C@@]3(CCN4CC3CC3)[C@H]2O6)cc1 [Naltrexone-3-NB590]"
experimental_value = 0.79


The molecule COc1ccccc1N1CCN(CCCCN2C(=O)c3ccc(CNC(=O)CCOCCOCCOCCOCCNC(=O)CCc4ccc5n4[B-](F)(F)[N+]4=C(c6ccc[nH]6)C=CC4=C5)cc3C2=O)CC1 [NAN-190-2-NB590] showed NanoBRET Fold Response equal to 1.02

The molecule COc1ccccc1N1CCN(CCCCN2C(=O)c3ccc(CNC(=O)CCOCCNC(=O)c4ccc(CNC(=O)CCc5ccc6n5[B-](F)(F)[N+]5=C(c7ccc[nH]7)C=CC5=C6)cc4)cc3C2=O)CC1 [NAN-190-3-NB590] showed NanoBRET Fold Response equal to 0.64

The molecule CC(C)N(CC[C@H](c1ccccc1)c1cc(CCNC(=O)CCOCCOCCOCCOCCNC(=O)CCc2ccc3n2[B-](F)(F)[N+]2=C(c4ccc[nH]4)C=CC2=C3)ccc1O)C(C)C [Tolterodine-2-NB590] showed NanoBRET Fold Response equal to 0.99

The molecule Cc1nc2n(c(=O)c1CCN1CCC(c3noc4cc(F)ccc34)CC1)CCCC2OC(=O)NCCOCCOCCOCCOCCNC(=O)CCc1ccc2n1[B-](F)(F)[N+]1=C(c3ccc[nH]3)C=CC1=C2 (centres unmarked) [Risperidone-2-NB590] showed NanoBRET Fold Response equal to 1.12

The molecule Cc1cc2c(s1)Nc1ccccc1N=C2N1CCN(CCCNC(=O)CCOCCOCCOCCOCCNC(=O)CCc2ccc3n2[B-](F)(F)[N+]2=C(c4ccc[nH]4)C=CC2=C3)CC1 [Olanzapine-a-2-NB590] showed NanoBRET Fold Response equal to 0.95

---

tested.system: HTR1E (Homo sapiens, UniProt P28566)
Construct: purchased Promega (in-house HiBiT-GPCR construct library, NanoBRET)
Sequence (P28566 whole entry): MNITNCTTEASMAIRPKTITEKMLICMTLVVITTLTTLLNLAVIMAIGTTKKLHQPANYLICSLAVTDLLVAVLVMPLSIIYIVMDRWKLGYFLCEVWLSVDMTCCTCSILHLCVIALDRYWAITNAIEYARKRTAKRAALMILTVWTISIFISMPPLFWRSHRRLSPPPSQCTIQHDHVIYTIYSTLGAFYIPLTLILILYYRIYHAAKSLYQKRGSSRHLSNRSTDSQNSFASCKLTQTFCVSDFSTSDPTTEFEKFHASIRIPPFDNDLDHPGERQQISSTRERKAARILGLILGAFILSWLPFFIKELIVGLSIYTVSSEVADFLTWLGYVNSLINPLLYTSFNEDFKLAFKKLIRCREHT
protocol: NanoBRET screen HiBiT-HTR1E in HEK293
Format: binding
condition.notes: HTR1E; tracer 1μM
reported.property: NanoBRET Fold Response
Please state the value as a number alone, without comment.

Sample answers from the record:
[[record]]
record_smiles = "COc1ccccc1N1CCN(CCCCN2C(=O)c3ccc(CNC(=O)CCOCCNC(=O)c4ccc(CNC(=O)CCc5ccc6n5[B-](F)(F)[N+]5=C(c7ccc[nH]7)C=CC5=C6)cc4)cc3C2=O)CC1"
experimental_value = 0.91

[[record]]
record_smiles = "O=C(CCc1ccc2n1[B-](F)(F)[N+]1=C(c3ccc[nH]3)C=CC1=C2)NCCOCCOCCNC(=O)OCCOCCN1CCN(C2=Nc3ccccc3Sc3ccccc32)CC1"
experimental_value = 0.99


The compound CC(C)N(CC[C@H](c1ccccc1)c1cc(CCNC(=O)CCOCCOCCOCCOCCNC(=O)CCc2ccc3n2[B-](F)(F)[N+]2=C(c4ccc[nH]4)C=CC2=C3)ccc1O)C(C)C showed NanoBRET Fold Response equal to 1.10
